- Tested on: UACC-257 melanoma
- MEASUREMENT DESCRIPTION: NCI tumour cell line growth inhibition, 48 h
Hi there, I'd appreciate the recorded TGI for every entry that follows.

O=C(/C=C/c1ccc(Cl)c(Cl)c1)C1CCC(Cl)CC1 (stereo not given)
35.1 µM
O=C1CSC(/C=C/c2ccccc2)N1c1ccc(-n2c(-c3ccccc3)nc3ccccc3c2=O)cc1 (stereo not given)
> 100 µM
COc1ccc2c(c1)CC[C@@H]1[C@@H]2CC[C@]2(C)[C@@H](O)/C(=C/c3ccncc3)C[C@@H]12
35.6 µM
COc1ccc(C2C3=C(COC3=O)N(CCO)c3cc4c(cc32)OCCO4)cc1OC (stereo not given)
> 50 µM
N#CC[C@H](C1CCCC1)n1cc(-c2ncnc3[nH]ccc23)cn1
> 100 µM
COC(=O)CNC(=O)Nc1cc(N2C(=O)ON3C2C(C)(C)N(O)C3(C)C)ccc1C (stereo not given)
> 100 µM
CC(C)NC(=O)O/N=C1\CCC2[C@@H]3CC=C4C[C@@H](OC(=O)NC(C)C)CC[C@]4(C)C3CC[C@]12C (stereo not given in full)
2.4 µM
O=C(Nc1ccc(F)cc1)c1cc2ccc(O)cc2oc1=Nc1ccccc1F
> 100 µM

Can you give me TGI for all of these, one by one?
1. NC(=O)CCC(NC(=O)C(F)(F)F)C(=O)O (stereo not given)
2. Cc1cc2c(C(C)C)c(O)c(O)c(C=O)c2c(O)c1-c1c(C)cc2c(C(C)C)c(O)c(O)c(C=O)c2c1O (tested in a mixture with another compound)
3. C/C(=N\Nc1cccc(Cl)n1)c1ccccn1

> 100 µM
4.12 µM
7.51 µM

Can you give me TGI for all of these, one by one?
1. CCOc1cc(/C=N\NC(=O)N/N=C/c2ccc(O)c(OCC)c2)ccc1O
2. CO[C@]12C[C@H](CNC(=O)c3cc(Br)c(Br)[nH]3)O[C@H]1NC(=O)N2
3. NCCc1ccc2c(c1)C(=O)c1c(O)ccc(O)c1C2=O
4. CCOC(=O)C1CC/C(=C(/C#N)C(=O)OC)N1 (stereo not given)

> 100 µM
> 100 µM
> 100 µM
> 100 µM
